# Lookup of reported 100 nM Rat IL-25-MMH Bound (RU) keyed by entry
# system-tested: T1, rat IL-25 expressed with a C-terminal myc-myc-hexahistidine tag (rat)
# T1 construct: also called Rat IL-25-MMH
# T1 chain: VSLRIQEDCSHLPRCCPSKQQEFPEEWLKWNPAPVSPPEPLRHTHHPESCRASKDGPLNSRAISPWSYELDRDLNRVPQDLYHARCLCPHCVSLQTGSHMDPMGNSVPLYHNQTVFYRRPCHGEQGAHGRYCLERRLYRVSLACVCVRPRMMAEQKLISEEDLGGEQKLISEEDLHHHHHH
# experiment-description: SPR Biacore, antibody captured, 37C
# value in RU; strip the unit string

Worked cases, answers included:
binder	display-unit	100 nM Rat IL-25-MMH Bound (RU)
H4H10907P (antibody, human IgG4, V domains shown, H4H prefix = human IgG4 Fc) VH: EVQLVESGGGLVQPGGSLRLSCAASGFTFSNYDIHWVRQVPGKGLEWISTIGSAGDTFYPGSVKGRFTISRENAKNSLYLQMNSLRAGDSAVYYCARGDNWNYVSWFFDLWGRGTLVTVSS VL: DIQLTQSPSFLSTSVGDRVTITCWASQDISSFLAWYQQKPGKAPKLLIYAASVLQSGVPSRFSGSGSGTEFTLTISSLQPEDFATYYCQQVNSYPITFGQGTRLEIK	RU	8
H4H10876P (antibody, human IgG4, V domains shown, H4H prefix = human IgG4 Fc) VH: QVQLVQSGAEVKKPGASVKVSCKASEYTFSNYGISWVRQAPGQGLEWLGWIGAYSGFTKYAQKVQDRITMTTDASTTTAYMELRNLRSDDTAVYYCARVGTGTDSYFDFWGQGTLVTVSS VL: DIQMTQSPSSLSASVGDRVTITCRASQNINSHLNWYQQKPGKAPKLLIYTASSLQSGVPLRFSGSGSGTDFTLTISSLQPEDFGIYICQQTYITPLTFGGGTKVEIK	RU	53

query: What does the data say about its 100 nM Rat IL-25-MMH Bound (RU)? Entry: H4H10861P (antibody, human IgG4, V domains shown, H4H prefix = human IgG4 Fc) VH: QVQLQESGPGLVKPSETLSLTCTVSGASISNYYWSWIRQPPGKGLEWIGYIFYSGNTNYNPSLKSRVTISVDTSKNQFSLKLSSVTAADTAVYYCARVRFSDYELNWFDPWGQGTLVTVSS VL: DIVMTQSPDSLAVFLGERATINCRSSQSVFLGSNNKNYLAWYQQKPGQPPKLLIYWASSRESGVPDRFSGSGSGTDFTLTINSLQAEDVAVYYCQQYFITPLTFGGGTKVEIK
result: 2

Values were extracted from patent US20160083466A1.
